target-of-assay: Tumor necrosis factor receptor superfamily member 10B (Homo sapiens) (UniProt O14763)
Sequence (O14763 whole entry, looked up): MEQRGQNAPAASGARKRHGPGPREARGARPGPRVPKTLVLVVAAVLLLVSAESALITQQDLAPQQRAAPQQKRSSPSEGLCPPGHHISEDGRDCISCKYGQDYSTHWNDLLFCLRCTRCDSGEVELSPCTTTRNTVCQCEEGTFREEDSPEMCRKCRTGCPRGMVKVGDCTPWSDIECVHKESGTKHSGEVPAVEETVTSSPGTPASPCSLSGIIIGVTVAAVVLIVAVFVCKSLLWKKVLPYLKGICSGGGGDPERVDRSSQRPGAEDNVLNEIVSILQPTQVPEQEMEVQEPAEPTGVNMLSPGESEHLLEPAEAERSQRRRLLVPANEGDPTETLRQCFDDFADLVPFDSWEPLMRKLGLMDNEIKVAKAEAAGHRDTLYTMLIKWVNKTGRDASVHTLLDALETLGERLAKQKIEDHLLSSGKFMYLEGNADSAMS
procedure-summary: caspase-8 TRAIL sensitization, hit retest, confirmation, cell-based, NB7+caspase-8, with/without TRAIL, luminescence panel (AID 651596)
conditions-used: NB7 neuroblastoma + caspase-8, TRAIL sensitization, luminescence viability, with TRAIL, mean of runs, at 10 µM, stronger effect = higher value
hey, just use 1.0 if measured activity is less than 70%, otherwise 0.0

Below 70% on activity? Entry Cc1ccc(C(=O)NC2CCCCCCC2)c(Cl)c1
1.0

Below 70% on activity? Entry O=c1oc2ccccc2cc1-c1csc(Nc2nc3c(F)cccc3s2)n1
1.0

Below 70% on activity? Entry CCN1CCN(c2ccc(S(=O)(=O)N3CCCCC3)cc2NC(=O)/C=C/c2ccc(OC(F)F)cc2)CC1
1.0

Below 70% on activity? Entry COc1ccc(-c2csc(NC(=O)C3CCN(c4ncnc5sc(C)c(C)c45)CC3)n2)cc1OC
0.0

Below 70% on activity? Entry CN(C)CCCN(C(=O)c1cc2cc([N+](=O)[O-])ccc2s1)c1nc2cc3c(cc2s1)OCCO3
0.0

Below 70% on activity? Entry O=C(COc1ccccc1)Nc1cccc(-c2ccc(N3CCOCC3)nn2)c1
0.0

Below 70% on activity? Entry COc1ccc(N(C(=O)CCl)C(C(=O)NCCc2ccccc2)c2cccs2)cc1Cl (stereo unspecified)
0.0

Below 70% on activity? Entry CC(C)c1ccc(C(=O)Nc2cccnc2)cc1
1.0

Below 70% on activity? Entry CSc1nnc(NC(=O)c2nc(S(=O)(=O)Cc3ccc(C)cc3)ncc2Cl)s1
0.0

Below 70% on activity? Entry COc1ccc(-c2cn3cc(C)ccc3n2)cc1OC
0.0

Below 70% on activity? Entry COc1cc2c3nnc(-c4ccc(F)cc4)c-3cn(Cc3ccc(C)cc3)c2cc1OC
1.0

Below 70% on activity? Entry Cc1noc(-c2ccc(Cl)cc2)c1C(=O)O/N=C(\N)c1ccc(C(C)(C)C)cc1
0.0

Below 70% on activity? Entry COC(=O)c1ccc(CCc2cc(O)c(Br)cc2O)cc1
1.0

Below 70% on activity? Entry C=C1C(=O)C23CCC4C(C)(C(=O)OC)CCCC4(C)C2CCC1(O)C3 (stereo unspecified)
0.0

Below 70% on activity? Entry Cc1ccc(NC(=S)c2nc3ccccc3s2)cc1
1.0

Below 70% on activity? Entry COCCNC(=O)c1c[nH]c2ccc(S(=O)(=O)N3CCc4ccccc43)cc2c1=O
0.0

Below 70% on activity? Entry O=C(NC(=S)Nc1nc2ccccc2s1)c1ccco1
0.0

Below 70% on activity? Entry CCOc1ccc(OCC)c(NC(=O)C2CCN(c3nn4c(=O)cc(C)nc4s3)CC2)c1
0.0

Below 70% on activity? Entry CC(C)(C)OC[C@H](NC(=O)c1[nH]cnc1C(=O)Nc1ccccc1F)C(=O)OC(C)(C)C
1.0

Below 70% on activity? Entry N#Cc1ccccc1N/C=C/C(=O)c1ccc(Cl)cc1
1.0

Below 70% on activity? Entry O=C(N/N=C/c1ccccc1[N+](=O)[O-])c1ccc2c(c1)OCCO2
0.0

Below 70% on activity? Entry C#CC(=O)N(c1ccc(OC)c(OC)c1)C(C(=O)NC1CCCC1)c1cccs1 (stereo unspecified)
0.0

Below 70% on activity? Entry C=CCNC(=S)N/N=C/c1ccc(C(F)(F)F)cc1
1.0

Below 70% on activity? Entry Cc1ccccc1CS(=O)(=O)c1ncc(Cl)c(C(=O)Nc2ccc(F)cc2)n1
1.0

Below 70% on activity? Entry O=[N+]([O-])c1ccc(N2CCN(Cc3ccccc3)CC2)c2c1no[n+]2[O-]
0.0

Below 70% on activity? Entry COC(=O)c1ccccc1NC(=O)c1nc(S(=O)(=O)Cc2ccccc2)ncc1Cl
0.0

Below 70% on activity? Entry Cc1nc(SCCC(=O)O)c2cc(-c3ccccc3)sc2n1
1.0

Below 70% on activity? Entry CN(C)c1ccc(N/C=C/C(=O)c2ccco2)cc1
1.0

Below 70% on activity? Entry Cc1ccc(C(=O)O/N=C(\N)c2ccc(Br)cc2)cc1C
0.0

Below 70% on activity? Entry COc1cc(/C=N/Nc2nn3cnnc3c3ccccc23)cc(OC)c1OC
0.0

The measurements presented in this section are drawn from PubChem BioAssay.
